src = paper PMC9680032

Task for the reader: assign each of the following molecules its reported EC50.
system: Human immunodeficiency virus (ROD); assay: Antiviral CPE assay, HIV-2 (ROD) in MT-4 cells; assay type: cell-based; conditions: Human immunodeficiency virus 2, MT4
Give bare numbers, in µg/mL.

- molecule: "O=c1[nH]cnc2c1ncn2[C@H]1CC[C@@H](CO)O1 [Didanosine, reference compound]"
  testedTarget: "Human immunodeficiency virus (ROD)"
  resultUnit: "µg/mL"
  EC50: 19.4

# context switch: different molecule, same EC50
## Task Quick check: EC50 on Human immunodeficiency virus (ROD), item Nc1ccn([C@@H]2CS[C@H](CO)O2)c(=O)n1 [Lamivudine, reference compound] ?
## Result 2.27

====

test system: Vaccinia virus; experiment: microbe, parasite or virus in culture; type: cell-based; conditions: Orthopoxvirus vaccinia, HEL, read-out: Antiviral EC50 Vaccinia virus
metricName: EC50

- compound: "Nc1ccn(C[C@@H](CO)OCP(=O)(O)O)c(=O)n1 [Cidofovir, reference compound]"
  EC50: "8.7 µM"
- compound: "Cc1cn(C2CC=C(CO)C3CC32)c(=O)[nH]c1=O (centres unmarked) [Compound 19]"
  EC50: "> 50 µg/mL"
- compound: "NC(=O)c1nnn(C2CC(O)C(CO)C3CC32)c1N (centres unmarked) [Compound 3b]"
  EC50: "> 50 µg/mL"
- compound: "OCc1cn(C2CC(O)C(CO)C3CC32)nn1 (centres unmarked) [Compound 3e]"
  EC50: "> 50 µg/mL"

Below is a list of compounds. For each, state its recorded EC50.
1. OCC1C(O)CC(n2cc(-c3ccccc3)nn2)C2CC12 (centres unmarked) [Compound 3c]
2. Cc1cn(C2CC(O)C(CO)C3CC32)c(=O)[nH]c1=O (centres unmarked) [Compound 1a]
3. Nc1nc2c(ncn2COCCO)c(=O)[nH]1 [Acyclovir, reference compound]
4. O=c1[nH]c(=O)n([C@H]2C[C@H](O)[C@@H](CO)O2)cc1/C=C/Br [Brivudin, reference compound]
5. Nc1nc2c(ncn2C2CC(O)C(CO)C3CC32)c(=O)[nH]1 (centres unmarked) [Compound 1b]
6. NC(=O)c1cn(C2CC(O)C(CO)C3CC32)nn1 (centres unmarked) [Compound 3a]
7. Nc1nc(O)c2ncn(COC(CO)CO)c2n1 [Ganciclovir, reference compound]

## Result
["> 50 µg/mL", "> 50 µg/mL", "> 250 µM", "12.6 µM", "> 50 µg/mL", "> 50 µg/mL", "> 100 µM"]

====

experiment: in vitro; conditions: human
Task for the reader: assign each of the following molecules its reported CC50.

These recorded examples may help you get a feel for the data.
- molecule: "O=c1[nH]c(=O)n([C@H]2C[C@H](O)[C@@H](CO)O2)cc1/C=C/Br [Brivudin, reference compound]"
  CC50: "> 250 µM"
- molecule: "Nc1ccn(C[C@@H](CO)OCP(=O)(O)O)c(=O)n1 [Cidofovir, reference compound]"
  CC50: "> 250 µM"
- molecule: "Nc1nc2c(ncn2COCCO)c(=O)[nH]1 [Acyclovir, reference compound]"
  CC50: "> 250 µM"

# context switch: different molecule, same CC50
## Task # CC50 lookup, item Nc1nc(O)c2ncn(COC(CO)CO)c2n1 [Ganciclovir, reference compound]
## Result > 100 µM
